The reported measurements were obtained from PubChem BioAssay (NCI).

Tested on: OVCAR-4 ovarian
Procedure Details: NCI-60 one-dose screen, 48 h (100 = growth as untreated, 0 = no growth, -100 = all killed)
Protocol Conditions: 10 µM unless noted
About 83,000 compounds went through this panel and 20% of them were active in at least one assay; those are over-represented in the sample as a whole. Active and inactive are the calls of the source. Rule for the calls: active = growth percent below 10; inactive = the rest.
Measured Attribute: growth

[[record]]
compound = "COc1ccc(C2=NN(C(C)=O)C(c3cc(OC)c(OC)c(OC)c3)C2)cc1 (stereo not given)"
system_tested = "OVCAR-4 ovarian"
measured_attribute = "growth"
reported_measurement = "112% (inactive)"

[[record]]
compound = "O=C1CC(=O)N(c2ccccc2)O1"
system_tested = "OVCAR-4 ovarian"
measured_attribute = "growth"
reported_measurement = "110% (inactive)"

[[record]]
compound = "Cc1ccccc1-c1cc(Cc2ccccc2O)c(=O)[nH]n1"
system_tested = "OVCAR-4 ovarian"
measured_attribute = "growth"
reported_measurement = "106% (inactive)"

[[record]]
compound = "CN(C)c1nc(-c2ccco2)n2nc(-c3ccco3)cc2n1"
system_tested = "OVCAR-4 ovarian"
measured_attribute = "growth"
reported_measurement = "80.1% (inactive)"

[[record]]
compound = "CN(C)c1cccc2c(S(=O)(=O)N[C@H]3CC[C@H]4[C@@H]5CCc6cc(O)ccc6[C@H]5CC[C@]34C)cccc12"
system_tested = "OVCAR-4 ovarian"
measured_attribute = "growth"
reported_measurement = "50.6% (inactive)"

[[record]]
compound = "CCOC(=O)c1ccccc1OC(=O)NNc1ccccc1"
system_tested = "OVCAR-4 ovarian"
measured_attribute = "growth"
reported_measurement = "63.6% (inactive)"


Request: Entry COc1ccccc1[C@H]1c2[nH]c3ccccc3c2C[C@H]2C(=O)N(CCCCCCC(=O)NO)CC(=O)N12 has what growth?
Result: 58.1% (inactive)

Request: Data request, read-out growth, for O=C(C(Br)Br)C(Br)C(Br)c1ccccc1 (stereo not given)
Result: 43.1% (inactive)

Request: Quick one: growth of COc1ccc2c(c1)C(=O)c1c-2c(OCCN(C)C)nc2cc(OC)ccc12 ?
Result: 4.71% (active)

Request: I have this compound here, COc1cc(/C=C2\COc3ccc(O)c(O)c3C2=O)cc(OC)c1 , and I need its recorded growth.
Result: 31.1% (inactive)

Request: Requested read-out: growth. Entry: CCOC(=O)c1c2c(c(C)n1Cc1ccc(OC)cc1)-c1nc(N)ncc1CC2
Result: 112% (inactive)

Request: // returns reported growth for input N#Cc1ccc(NC(=O)Nc2ccc(Oc3ccc(NC(=O)Nc4ccc(C#N)cc4)cc3)cc2)cc1
Result: 33.8% (inactive)

Request: Can you look up the measured growth of Cc1c(C(N)=O)sc2ncn(Cc3ccccc3)c(=O)c12 for me?
Result: 111% (inactive)

Request: Dear colleague, I am looking for the recorded growth of the following compound: Cc1cc(CC(=O)O)n(C)c1C(=O)c1ccc(Cl)cc1
Result: 119% (inactive)

Request: Quick one: growth of COC(=O)[C@]1(CCSC)N[C@H](c2cn(-c3ccccc3)nc2C)[C@@H]2C(=O)N(c3ccc(C)cc3)C(=O)[C@@H]21 ?
Result: 112% (inactive)
